Numbers sourced from patent US4221730A.

Molecular target: urease of intact Proteus mirabilis cells (Proteus mirabilis, UniProt P17086)
Construct: using intact Proteus mirabilis cells as the source of urease; endogenous in cells
Sequence (P17086 whole entry): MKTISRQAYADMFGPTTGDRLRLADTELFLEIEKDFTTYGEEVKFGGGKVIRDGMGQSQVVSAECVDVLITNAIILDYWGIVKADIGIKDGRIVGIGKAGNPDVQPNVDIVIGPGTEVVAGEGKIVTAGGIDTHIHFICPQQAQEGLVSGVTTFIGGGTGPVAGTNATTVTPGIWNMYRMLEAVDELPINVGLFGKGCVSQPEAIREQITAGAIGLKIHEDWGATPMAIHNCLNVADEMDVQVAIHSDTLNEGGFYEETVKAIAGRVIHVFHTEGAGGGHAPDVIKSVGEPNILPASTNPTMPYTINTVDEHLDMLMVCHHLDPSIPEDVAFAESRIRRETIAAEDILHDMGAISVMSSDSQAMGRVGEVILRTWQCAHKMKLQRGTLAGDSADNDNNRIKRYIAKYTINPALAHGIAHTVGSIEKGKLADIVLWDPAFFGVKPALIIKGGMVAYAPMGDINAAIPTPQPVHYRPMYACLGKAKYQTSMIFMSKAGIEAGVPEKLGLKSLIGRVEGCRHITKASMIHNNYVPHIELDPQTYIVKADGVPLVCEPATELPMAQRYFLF
Experiment: anti-urease potency using intact Proteus mirabilis cells as the source of urease
Details: 40 minutes preincubation, pH 8.0, ammonia formed in five minutes after addition of urea; read-out: concentration evincing a 50% inhibition of the urease of intact Proteus mirabilis cells
quantityName: IC50
Give the figure together with its unit, number first.

Ask: # input compound: Nc1ccc(S(=O)(=O)Nc2cccc(C(=O)NP(N)(N)=O)c2)cc1 ; wanted: its IC50
Result: 2000 nM
